- System: Human Oral Mucosa Explant Tissues
- test.protocol: Effect of final gel pH on anthocyanin uptake into human oral mucosa explant tissues
- Assay type: in vitro ADME
- condition.description: explant sample 001; 10% w/w FBR gel
Below, each of the compounds is paired with its reported Anthocyanin uptake, Gel pH 3.5 value.
Respond with the bare value in pmol per mg tissue.

OC[C@H]1O[C@@H](Oc2cc3c(O)cc(O)cc3[o+]c2-c2ccc(O)c(O)c2)[C@H](O[C@@H]2OC[C@@H](O)[C@H](O)[C@H]2O)[C@@H](O)[C@@H]1O.[Cl-] [Cyanidin 3-sambubioside, cyanidin 3-sambubioside]
7.4
C[C@@H]1O[C@@H](OC[C@H]2O[C@@H](Oc3cc4c(O)cc(O)cc4[o+]c3-c3ccc(O)c(O)c3)[C@H](O)[C@@H](O)[C@@H]2O)[C@H](O)[C@H](O)[C@H]1O [cyanidin 3-rutinoside]
116.4
OC[C@H]1O[C@@H](Oc2cc3c(O)cc(O)cc3[o+]c2-c2ccc(O)c(O)c2)[C@H](O)[C@@H](O)[C@@H]1O [cyanidin 3-glucoside]
128.1

Consider the record given below.
Task: // fetch Human Oral Mucosa Explant Tissues Anthocyanin uptake, Gel pH 3.5 for CC1OC(OCC2OC(Oc3cc4c(O)cc(O)cc4[o+]c3-c3ccc(O)c(O)c3)C(OC3OCC(O)C(O)C3O)C(O)C2O)C(O)C(O)C1O (stereo not shown) [cyanidin 3-xylosylrutinoside]
Result: 14.2
